Just for reference, patent US20200123233A1 is where these values come from.

target: Rabies virus glycoprotein G, ERA strain (attenuated vaccine strain, ATCC VR332) (Rabies virus, ERA strain (genotype 1 lyssavirus)) (UniProt P03524); assay: cell-based or functional assay
Sequence (P03524 20-524 limits assumed): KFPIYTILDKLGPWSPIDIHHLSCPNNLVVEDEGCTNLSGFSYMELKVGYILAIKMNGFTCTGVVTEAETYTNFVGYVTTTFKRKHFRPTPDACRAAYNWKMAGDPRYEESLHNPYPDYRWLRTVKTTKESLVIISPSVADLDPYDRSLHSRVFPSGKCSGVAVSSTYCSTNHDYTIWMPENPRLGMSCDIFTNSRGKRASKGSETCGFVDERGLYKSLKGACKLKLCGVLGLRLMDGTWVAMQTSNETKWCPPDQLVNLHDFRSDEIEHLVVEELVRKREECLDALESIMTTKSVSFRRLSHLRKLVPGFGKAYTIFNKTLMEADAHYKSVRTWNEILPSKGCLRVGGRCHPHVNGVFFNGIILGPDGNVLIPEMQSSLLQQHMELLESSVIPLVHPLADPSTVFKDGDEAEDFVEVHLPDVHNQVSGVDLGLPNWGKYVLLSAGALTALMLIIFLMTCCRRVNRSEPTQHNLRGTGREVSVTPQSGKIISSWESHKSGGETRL
Here the recorded log10(ERA neutralizing antibody titer (RFFIT): EU/mg) is given for each entry.
recorded-metric: log10(ERA neutralizing antibody titer (RFFIT): EU/mg) (log10 of the value in EU/mg)

INSERT INTO assay_data (binder, meas_value) VALUES
  ('LG212A2 (VHH) VHH: EVQLVESGGGLVQAGGSLRLSCAASGRTFDTYFVGWFRQAPGKERDFVAAISWSGDRTFYADSVKGRFTISRDNAKNTEYLQMNSLKPEDTAVYYCAAREYGRLYSDSEAYDYWGQGTQVTVSS', -0.26),
  ('LG213B7 (VHH) VHH: EVQLVESGGGLVQAGGSLRLSCTVSGDTFDNSAAGWYRATSETQRELVARIRSSGSTNYADSVKGRFTVSRDNAKNTVYLQMNSLKPEDTAVYYCNVVSYGEYFWGKGTLVTVSS', 0.92),
  ('LG212B2 (VHH) VHH: EMQLVESGGGLVQAGDSLRLSCAASGDTFSWYVMAWFRQAPGKEREFVTWINRSGASTYYADSVKGRFTIFRDNDKNTVYLQMNSLKPEDTAVYYCAAGGFYGLRTTEERYDTWGQGTQVTVSS', 0.41),
  ('LG214C10 (VHH) VHH: EVQLVESGGGLVQPGGSLRLSCAASGFIFGSYDMSWVRQAPGKGPEWVSGINSGGGSTGYADSVKGRFTISRDNAKNTLYLQMNSLKPEDTAVYYCSTNLYPTTDDVWGQGTQVTVSS', 1.55),
  ('LG213D7 (VHH) VHH: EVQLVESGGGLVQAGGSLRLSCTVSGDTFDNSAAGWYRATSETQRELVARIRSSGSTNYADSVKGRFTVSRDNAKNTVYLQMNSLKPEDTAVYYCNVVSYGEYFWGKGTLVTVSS', 0.95),
  ('LG213E6 (VHH) VHH: EVQLVESGGGLVQAGASLRLSCAASGSTLSRYGVGWFRQAPGKERELVASVDWSGSRTYYADSVKGRFTISRDNAKNTGYLQMNSLKPDDTAVYYCAADSSVVPGIEKYDDWGLGTQVTVSS', 2.19),
  ('LG213H7 (VHH) VHH: EVQLVESGGGLVQAGGSLRLSCAASGRTLSSYRMGWFRQAPGKEREFISTISWNGRSTYYADSVKGRFIFSEDNAKNTVYLQMNSLKPEDTAVYYCAAALIGGYYSDVDAWSYWGPGTQVTVSS', 1.94),
  ('LG214F8 (VHH) VHH: EVQLVESGGDLVQAGGSLRLSCVASGSTYSINAMGWYRQAPGKLRELVAAFRTGGSTDYADSVKGRFTISRDTAKNTVYLQMNSLKPEDTAVYYCNAEVIYYPYDYWGQGTQVTVSS', 1.38);
